Hi there, I'd appreciate the recorded composite z-score for every entry that follows.
experiment-notes: small-molecule binders of probe aInhba, primary screen, biochemical, small-molecule microarray, 635/667 nm fluorescence (AID 1148);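 also: score merges 667nm spot fluorescence with signal-to-noise for antibody binding to printed compounds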
test-context: higher = more signal
Number only, no unit.

Identify measured composite z-score associated with `C[C@@H]1CC[C@H]2C(=O)N3[C@@H](CC[C@@H](C)[C@@H]3c3cccc(N4CCOCC4)c3)C(=O)N2[C@H]1c1cccc(Br)c1` 0.0561

Answer with reported composite z-score of `C=C(COC)C(=O)CC[C@H](OC(=O)c1ccccc1-c1ccccc1C(=O)O)c1cccc(OCCO)c1` -0.0332

Identify measured composite z-score associated with CC1CC/C=C\[C@H]2OC34C=CCN(Cn5nnc6ccccc65)C(=O)[C@H]3N(C(C)CO)C(=O)[C@@H]4C2C(=O)O1 (some centres not stated) -0.0675

Consider the molecule `C=CC[C@]1(C(N)=O)N=C(c2ccc(OCCCO)cc2)O[C@H]1c1ccccc1CN=[N+]=[N-]` and give its recorded composite z-score. -0.0093

Read the entry `COc1cc(CO)cc(I)c1O[C@H]1C=C(C(=O)NCCO)C[C@@H](NCCc2c[nH]c3ccccc23)[C@@H]1O` and write its reported composite z-score. -0.0954

For the molecule `CN(C)CCCC[C@@H]1NC(=O)[C@@H]2C[C@H](C(=O)O)[C@H](c3ccc(O)cc3)N2C1=O` , give its measured composite z-score value. 0.174

In one line, give reported composite z-score of the entry `O=C1O[C@@H](c2ccccc2)[C@@H](c2ccccc2)N2[C@@H](c3ccc(OCCO)cc3)[C@]3(C(=O)Nc4ccc(C#CCCO)cc43)[C@@H](C(=O)N3CCN(c4ncccn4)CC3)[C@H]12` . 0.0403
